Test Protocol: NCI Yeast Anticancer Drug Screen. Data for the cln2 rad14 strain (AID 165)
Condition Details: S. cerevisiae cln2 rad14 strain, at 50.0 µM, hits give high values
The panel holds about 79,000 compounds, 15% with a hit somewhere; the sample as a whole holds those more often.
Returns Met if the recorded growth inhibition is greater than or equal to 30%, and Not met otherwise.

Look over these answered cases.
| Molecule | Category Label |
| --- | --- |
| O=C(C(c1ccccc1)c1ccccc1)C(c1ccccc1)c1ccccc1 | Met |
| COc1cc2c(cc1OC)C(Cc1c3ccccc3cc3ccccc13)N(C)CC2 (stereo not drawn) | Met |
| CC(CCc1nc2ccccc2s1)(c1ccc(O)cc1)c1ccc(O)cc1 | Met |
| Nc1ccc2c3c(cccc13)C(=O)N(CCCBr)C2=O | Met |
| Nc1cc2c(cc1Cl)[nH]c(=O)c1cc(Cl)ccc12 | Not met |
| O=C(O)c1ccc2c(c1)Cc1cc([N+](=O)[O-])ccc1-2 | Met |
| c1ccc([P+](CCCCCCCC[P+](c2ccccc2)(c2ccccc2)c2ccccc2)(c2ccccc2)c2ccccc2)cc1 | Met |
| CC(C)OP(=O)(OC(C)C)C(=Nc1ccccc1)NNc1ccc([N+](=O)[O-])cc1 | Not met |

Enquiry: For this molecule, is measured growth inhibition 30% or higher? CCCCN(CCCC)C(Cl)=Nc1ccccc1
Return: Met

Enquiry: For this molecule, is measured growth inhibition 30% or higher? CCN(CC)CCCn1c2cc(=O)c(=O)cc-2[nH]c2cc(C)ccc21
Return: Not met

Enquiry: For this molecule, is measured growth inhibition 30% or higher? COC(=O)C(CC(C)=O)CS(=O)(=O)CC(=O)C(=O)Nc1cccc([N+](=O)[O-])c1 (stereo not drawn)
Return: Met

Enquiry: For this molecule, is measured growth inhibition 30% or higher? Cc1ccccc1N=Nc1ccc(N=Nc2ccc(N)nc2N)c(C)c1
Return: Not met

Enquiry: For this molecule, is measured growth inhibition 30% or higher? Cc1cc(NCCCCCCCNc2cc(C)nc3cc([N+](=O)[O-])ccc23)c2ccc([N+](=O)[O-])cc2n1
Return: Met

Enquiry: For this molecule, is measured growth inhibition 30% or higher? O=C(O)c1ccc(Nc2cnc3ccc(C(F)(F)F)cc3n2)cc1
Return: Not met

---

Test Protocol: NCI Yeast Anticancer Drug Screen. Data for the mec2-1 strain (AID 157)
Condition Details: S. cerevisiae mec2-1 strain, at 50.0 µM (retest, dose inferred, filed as 5.0), hits give high values
About 79,000 compounds went through this panel and 15% of them were active in at least one assay; those are over-represented in the sample as a whole.
Returns T if the recorded growth inhibition is greater than or equal to 80%, and F otherwise.

Look over these answered cases.
| Compound | Category Label |
| --- | --- |
| CSC1SCC2C(=O)N(C)C(C(C)C)C(=O)OCC(NC(=O)c3cnc4ccccc4n3)C(=O)NC(C)C(=O)N(C)C1C(=O)N(C)C(C(C)C)C(=O)OCC(NC(=O)c1cnc3ccccc3n1)C(=O)NC(C)C(=O)N2C (centres undefined) | T |
| OCC(O)C(O)C(O)C(/C=N/Nc1ccccc1)=N/Nc1ccccc1 (centres undefined) | F |
| COc1cc2c(c3c1/c(=N/N(C)C)c1ccccc1n3C)C=CC(C)(C)O2 | T |

Enquiry: For this compound, is measured growth inhibition 80% or higher? CC(C)(C)c1ccc(-c2c3ccccc3cc3ccccc23)cc1
Return: F

Enquiry: For this compound, is measured growth inhibition 80% or higher? Cc1ccc(S(=O)(=O)C23C(N=NC2(C)C)C3(C)C)cc1 (centres undefined)
Return: F

Enquiry: For this compound, is measured growth inhibition 80% or higher? OCCNc1nc(NCCO)c2nc(-c3ccccc3)c(-c3ccccc3)nc2n1
Return: F
